# TARGET OF ASSAY: DLG2_2, Q15700
# Sequence (Q15700 189-283): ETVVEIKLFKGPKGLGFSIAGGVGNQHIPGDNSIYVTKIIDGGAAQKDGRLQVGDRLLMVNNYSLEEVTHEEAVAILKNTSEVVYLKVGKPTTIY
# ASSAY REMARKS: holdup assay
# Parameters: key: below the threshold = too weak to quantify, mostly under pKd 3.1 to 4
# SETUP CONDITIONS: plain residues with an end cap or a label only (N-terminal biotin on a linker: ado-ado)
READOUT LABEL: pKd

// known answers, use as guide
>  <BINDER>
KEKASTETEC [TRPM1, Q7Z4N2]

>  <pKd>
3.52

$$$$
>  <BINDER>
PALKNGQYWV [CSPG4, Q6UVK1]

>  <pKd>
below the threshold

$$$$
>  <BINDER>
SAGADSETHC [SLCO1B1, Q9Y6L6]

>  <pKd>
below the threshold

$$$$
>  <BINDER>
EKPIDSETKM [SLC1A3, P43003]

>  <pKd>
below the threshold

$$$$
>  <BINDER>
QLKSGRDSTV [TMEM178A, Q8NBL3]

>  <pKd>
4.4

$$$$
>  <BINDER>
PEKVSNTTVV [IGSF5, Q9NSI5]

>  <pKd>
4.44

$$$$
>  <BINDER>
GDSSRKEYFI [GYPC, P04921]

>  <pKd>
below the threshold

$$$$

// below: pKd requested for another binder
Q) Tell me its pKd given LVEEEEPMNL [HDAC7, Q8WUI4] as the entry.
A) below the threshold
